Can you tell me viability at 2 days, 100 µM for the items I'm about to list?
Test Method Notes: in vitro
Assay Context: human, HEK293 cells (Flp-In-293), HEK293 viability, Dose 100 µM
One number for each entry, in %.

Please review the following examples before continuing.
Cc1ccc(SCCCn2cnc3ccccc32)cc1 [Compound 7926035] :: 30.4
Cc1ccc(OCCn2cnc3ccccc32)cc1 [Compound 5671538] :: 61.4
CCc1cc(OCCn2cnc3ccccc32)ccc1Cl [Compound 7925288] :: 7.1
Clc1ccc(Cn2cnc3ccccc32)c(Cl)c1 [Compound 6750659] :: 19.4

Your task in this section: give viability at 2 days, 100 µM for each listed record.
1. Cc1nc2ccccc2n1CCOc1ccccc1 [Compound 5550112]
2. Cc1ccccc1OCCCCn1cnc2ccccc21 [Compound 7732524]
3. CCCOc1ccc(Cn2cnc3ccccc32)cc1 [Compound 7355741]

Output:
100
13.7
30.3

---

System Under Test: C. elegans (N2) complex I (NADH:ubiquinone oxidoreductase) (Caenorhabditis elegans, UniProt P24887+Q93873+Q94360)
Sequence (Q94360 17-199): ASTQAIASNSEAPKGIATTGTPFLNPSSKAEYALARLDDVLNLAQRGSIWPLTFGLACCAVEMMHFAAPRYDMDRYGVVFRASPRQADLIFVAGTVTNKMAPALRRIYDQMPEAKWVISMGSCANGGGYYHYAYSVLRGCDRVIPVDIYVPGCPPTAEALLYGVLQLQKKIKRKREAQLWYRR
Sequence (P24887 whole entry): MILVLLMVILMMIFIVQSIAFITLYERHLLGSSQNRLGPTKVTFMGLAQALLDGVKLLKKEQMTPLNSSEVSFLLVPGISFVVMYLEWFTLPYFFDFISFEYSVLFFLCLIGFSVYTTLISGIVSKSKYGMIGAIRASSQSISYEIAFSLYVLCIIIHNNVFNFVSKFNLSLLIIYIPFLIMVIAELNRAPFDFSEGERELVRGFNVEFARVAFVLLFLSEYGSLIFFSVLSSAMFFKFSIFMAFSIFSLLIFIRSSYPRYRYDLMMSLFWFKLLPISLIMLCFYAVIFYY
Sequence (Q93873 31-482): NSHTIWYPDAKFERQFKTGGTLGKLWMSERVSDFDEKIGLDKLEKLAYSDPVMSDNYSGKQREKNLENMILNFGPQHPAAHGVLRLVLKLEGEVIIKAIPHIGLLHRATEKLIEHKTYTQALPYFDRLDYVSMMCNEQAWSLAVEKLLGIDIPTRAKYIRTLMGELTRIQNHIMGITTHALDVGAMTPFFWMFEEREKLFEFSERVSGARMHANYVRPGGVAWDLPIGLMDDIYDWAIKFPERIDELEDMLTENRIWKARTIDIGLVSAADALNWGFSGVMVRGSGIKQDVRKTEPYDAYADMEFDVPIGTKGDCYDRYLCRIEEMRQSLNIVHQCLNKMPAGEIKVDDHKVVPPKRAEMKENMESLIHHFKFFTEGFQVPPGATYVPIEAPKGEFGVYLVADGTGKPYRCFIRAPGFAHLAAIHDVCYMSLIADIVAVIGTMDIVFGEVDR
Test Method Notes: biochemical
Format: biochemical
Assay Context: 1.5 µM; wild-type C. elegans mitochondria; single replicate; read-out: percent (%) in vitro complex I activity relative to solvent control
Readout Kind: remaining activity at 1.5 µM
Answer shape: numeric part, then the unit.

Please review the following examples before continuing.
COC(=O)Nc1nc2ccc(C(=O)c3ccccc3)cc2[nH]1 [mebendazole, reference compound] :: 101%
COc1cc2c(cc1OC)C(C(C)c1ccc(CC(C)C)cc1)=NCC2 (centres unmarked) [NPD10504] :: 76.6%
COc1cc2c(cc1OC)C(/C=C/c1ccc(N(C)C)cc1)=NCC2 [NPD6303] :: 100%

Your task in this section: give remaining activity at 1.5 µM for each listed record.
1. COc1cc2c(cc1OC)C(c1ccc(-c3ccc(Cl)c(Cl)c3)o1)=NCC2 [NPD3577]
2. COc1ccc(Cc2nccc3cc(OC)c(OC)cc23)cc1OC [Papaverine, reference compound]

Output:
["96.2%", "81.5%"]

---

Test Method Notes: in vitro
Assay Context: human, HEK293 Cell Viability Assay LC50, HEK293 cells; estimated from fitted dose-response curves; mean of at least two biological replicates
Readout Kind: CC50 at 2 days (µM)
Answers are plain numbers, in µM.

Please review the following examples before continuing.
Cc1nc2ccccc2n1Cc1ccc(C(C)C)cc1 [Compound 7353551] :: 46.2
Brc1ccccc1OCCCCn1cnc2ccccc21 [Compound 7924576] :: 44.3
Nc1nc2ccccc2n1Cc1ccc(Br)cc1 [Compound 7313068] :: 41.7

Your task in this section: give CC50 at 2 days for each listed record.
1. CCn1c(/C=C/c2ccc(F)cc2)nc2ccccc21 [Compound 7147614]
2. Clc1ccc(Cn2cnc3ccccc32)c(Cl)c1 [Compound 6750659]
3. Cc1nc2ccccc2n1Cc1ccc(Cl)c(Cl)c1 [Compound 5655567]
4. CCn1c(C(C)c2ccc(CC(C)C)cc2)nc2ccccc21 (centres unmarked) [STK951902]
5. Cc1nc2ccccc2n1Cc1ccc(Br)cc1 [Compound 5567167]
6. Cc1ccc(SCCCCn2cnc3ccccc32)cc1 [Compound 7925333]
7. C=CCn1c(-c2ccc(N(C)C)cc2)nc2ccccc21 [Compound 6873298]

Output:
[41, 72.7, 64.5, 31.7, 89.3, 75.1, 65.3]
